FYI, the data here is from ChEMBL document CHEMBL4359833.

# Ratio IC50 per entry
Organism: Homo sapiens
protocol.details: Selectivity ratio of IC50 for alpha4beta2 nAChR (unknown origin) expressed in Xenopus laevis oocytes to IC50 for alpha3beta4 nAChR (unknown origin) expressed in Xenopus laevis oocytes
Format: cell-based

# annotated cases, reported Ratio IC50 shown
[
  {
    "substance.smiles": "NCCCNCCCCNCCCNC(=O)[C@H](CC1CCCCC1)NC(=O)c1ccccc1",
    "Ratio IC50": 57.8
  },
  {
    "substance.smiles": "NCCCNCCCCNCCCNC(=O)[C@H](CC1CCCCC1)NC(=O)Cc1cccc2ccccc12",
    "Ratio IC50": 91.3
  },
  {
    "substance.smiles": "NCCCNCCCCNCCCNC(=O)[C@H](CC1CCCCC1)NC(=O)C1CC1",
    "Ratio IC50": 42.6
  },
  {
    "substance.smiles": "NCCCNCCCCNCCCNC(=O)[C@H](Cc1ccc(O)cc1)NC(=O)C1CCCC1",
    "Ratio IC50": 39.5
  }
]

Continue with the compound presented below.
Item: `NCCCNCCCCNCCCNC(=O)[C@H](Cc1ccc(O)cc1)NC(=O)C1CCCCC1` | Ratio IC50: 79.6
